Assign viability at 72 h, 3 uM to each entry below.
assay: Viability (MTS) of Hela cells; assay type: cell-based, human; details: human, Hela cells, MTS absorbance 490, Conc 3 uM, read-out: cell viability normalised to control wells (single replicate)
Give the value, in units of %, as a plain number.

Query: State its viability at 72 h, 3 uM for this compound: Cc1ncsc1-c1ccc([C@H](C)NC(=O)[C@@H]2C[C@@H](O)CN2C(=O)[C@@H](NC(=O)CCCCCC(=O)N2CCN(CC[C@H](CSc3ccccc3)Nc3ccc(S(=O)(=O)NC(=O)c4ccc(N5CCN(CC6=C(c7ccc(Cl)cc7)CCC(C)(C)C6)CC5)cc4)cc3S(=O)(=O)C(F)(F)F)CC2)C(C)(C)C)cc1 [DT2216]
Reply: 78.4

Query: State its viability at 72 h, 3 uM for this compound: CC1(C)CCC(c2ccc(Cl)cc2)=C(CN2CCN(c3ccc(C(=O)NS(=O)(=O)c4ccc(N[C@H](CCN5CCOCC5)CSc5ccccc5)c(S(=O)(=O)C(F)(F)F)c4)cc3)CC2)C1 [ABT263, navitoclax]
Reply: 83.1
